Each entry below carries its recorded IC50.
target: Pim1 kinase (Homo sapiens (Human)); details: read-out: Pim1 IC50
Sequence (P11309 whole entry): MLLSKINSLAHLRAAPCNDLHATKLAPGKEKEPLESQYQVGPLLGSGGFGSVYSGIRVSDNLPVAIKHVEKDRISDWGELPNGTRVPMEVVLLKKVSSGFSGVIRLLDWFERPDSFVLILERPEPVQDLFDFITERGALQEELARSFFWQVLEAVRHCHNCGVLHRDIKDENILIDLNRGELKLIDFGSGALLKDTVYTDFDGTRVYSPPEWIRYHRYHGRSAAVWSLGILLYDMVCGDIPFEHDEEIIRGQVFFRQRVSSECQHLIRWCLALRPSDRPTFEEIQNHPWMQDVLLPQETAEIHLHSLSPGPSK
State the answer as a number, implicitly in nM.

Consider the reported IC50 for these molecules:
C[C@@H]1C[C@H](N)C[C@H](c2ccncc2NC(=O)c2cccc(-c3cc(O)ccc3F)n2)C1 [Example 35] : 1
Nc1ccc(-c2c(F)cccc2F)nc1C(=O)Nc1cnccc1[C@@H]1CC[C@H](O)[C@@H](N)C1 [Example 104] : 3

What value of measured IC50 is listed for CC1CC(c2ccncc2NC(=O)c2ccc(F)c(-c3c(F)cccc3F)n2)=CC(O)C1 (stereo not shown) [Example 137] ?
1

What value of measured IC50 is listed for N[C@H]1CCC[C@@H](c2ccncc2NC(=O)c2ccc(F)c([C@H]3CC[C@@H](O)CC3)n2)C1 [Example 53] ?
10

====

System: Pim3 kinase (Homo sapiens (Human), UniProt Q86V86) | Read-out: pIC50
# pIC50 is unitless: minus log10 of the molar concentration; print number only

Consider the reported pIC50 for these compounds:
Nc1cc(F)c(-c2ccncc2F)nc1C(=O)Nc1cnccc1[C@@H]1CCC[C@H](N)C1 : 8.05
CCc1ccc(F)c(-c2cccc(C(=O)Nc3cnccc3[C@@H]3CCC[C@H](N)C3)n2)c1F : 8.15
N[C@H]1CCC[C@@H](c2ccncc2NC(=O)c2cccc(-c3cc(O)ccc3F)n2)C1 : 8.70
CCCOc1ccc(F)c(-c2nc(C(=O)Nc3cnccc3[C@@H]3CC[C@H](O)[C@H](N)C3)c(N)cc2F)c1 : 8.52
C[C@H]1CN(c2ccncc2NC(=O)c2ccc(F)c(-c3ccccc3F)n2)C[C@@H](O)[C@@H]1O : 9.00
N[C@H]1CCC[C@@H](c2ccncc2NC(=O)c2ccc(F)c(-c3ccc(F)cc3F)n2)C1 : 8.05

Give pIC50 (Pim3 kinase (Homo sapiens (Human), UniProt Q86V86)) of the following compound: Cc1ccc(F)c(-c2nc(C(=O)Nc3cnccc3N3C[C@@H](N)[C@H](O)[C@@H](C)C3)ccc2F)c1F
8.52

Give pIC50 (Pim3 kinase (Homo sapiens (Human), UniProt Q86V86)) of the following compound: C[C@@H]1C[C@H](N)C[C@H](c2ccncc2NC(=O)c2nc(-c3cc(O)ccc3F)ccc2F)C1
8.70

Give pIC50 (Pim3 kinase (Homo sapiens (Human), UniProt Q86V86)) of the following compound: CC(=O)O[C@H]1CC[C@@H](c2ccncc2NC(=O)c2nc(-c3c(F)cccc3F)ccc2N)C[C@H]1N (stereo in doubt)
8.30

Give pIC50 (Pim3 kinase (Homo sapiens (Human), UniProt Q86V86)) of the following compound: C[C@@H]1CN(c2ccncc2NC(=O)c2nc(-c3c(F)cccc3F)ccc2N)C[C@@H](N)[C@H]1O
8.40

Give pIC50 (Pim3 kinase (Homo sapiens (Human), UniProt Q86V86)) of the following compound: C[C@@H]1C[C@H](N)C[C@H](c2ccncc2NC(=O)c2nc(-c3c(F)cccc3F)c(F)cc2N)C1 [Example 51]
9.00

====

Each entry below carries its recorded pIC50.
molecular target: UniProt:P11309; conditions: read-out: Pim1 IC50
# pIC50 is unitless: minus log10 of the molar concentration; print number only

Consider the reported pIC50 for these compounds:
Nc1ccc(-c2c(F)cccc2F)nc1C(=O)Nc1cnccc1C1=CC(N)CCC1 (centres unmarked) [Example 107] : 8.70
N[C@@H]1C[C@H](c2ccncc2NC(=O)c2ccc(F)c(C3CCCCC3)n2)C[C@H](C(F)(F)F)C1 [Example 111] : 8.70
COc1cc(F)c(-c2cccc(C(=O)Nc3cnccc3[C@H]3C[C@@H](N)C[C@@H](C(F)(F)F)C3)n2)c(F)c1 [Example 109] : 9.00
C[C@H]1CN(c2ccncc2NC(=O)c2ccc(F)c(C3CCCCC3)n2)C[C@@H](N)[C@@H]1O [Example 16] : 9.00

What value of measured pIC50 is listed for C[C@H]1CN(c2ccncc2NC(=O)c2ccc(F)c(-c3ccncc3)n2)C[C@@H](N)[C@@H]1O [Example 120] ?
8.52

What value of measured pIC50 is listed for COc1cc(F)c(-c2nc(C(=O)Nc3cnccc3[C@H]3C[C@@H](N)CC(C)(C)C3)ccc2F)c(F)c1 [Example 123] ?
9.00

What value of measured pIC50 is listed for C[C@@H]1C[C@H](N)C[C@H](c2ccncc2NC(=O)c2ccc(F)c([C@H]3CC[C@@H](O)CC3)n2)C1 [Example 54] ?
8.52

What value of measured pIC50 is listed for N[C@H]1CCC[C@@H](c2ccncc2NC(=O)c2nc(-c3cc(O)ccc3F)ccc2F)C1 [Example 34] ?
8.40

What value of measured pIC50 is listed for C[C@@H]1C[C@H](c2ccncc2NC(=O)c2cccc(-c3c(F)cccc3F)n2)C[C@H](N)[C@H]1O (stereo in doubt) [Example 52] ?
9.00

What value of measured pIC50 is listed for C[C@H]1C[C@@H](c2ccncc2NC(=O)c2ccc(F)c(C3CCCCC3)n2)C[C@@H](N)[C@@H]1O (stereo in doubt) [Example 89] ?
8.10

What value of measured pIC50 is listed for C[C@@H]1C[C@H](N)C[C@H](c2ccncc2NC(=O)c2nc(-c3c(F)cccc3F)c(F)cc2N)C1 (stereo in doubt) [Example 133] ?
9.00

The origin of these recorded values is patent US8592455B2.
